Molecular target: rat P2X7 (Rattus norvegicus (Rat), UniProt Q64663)
Sequence (Q64663 whole entry): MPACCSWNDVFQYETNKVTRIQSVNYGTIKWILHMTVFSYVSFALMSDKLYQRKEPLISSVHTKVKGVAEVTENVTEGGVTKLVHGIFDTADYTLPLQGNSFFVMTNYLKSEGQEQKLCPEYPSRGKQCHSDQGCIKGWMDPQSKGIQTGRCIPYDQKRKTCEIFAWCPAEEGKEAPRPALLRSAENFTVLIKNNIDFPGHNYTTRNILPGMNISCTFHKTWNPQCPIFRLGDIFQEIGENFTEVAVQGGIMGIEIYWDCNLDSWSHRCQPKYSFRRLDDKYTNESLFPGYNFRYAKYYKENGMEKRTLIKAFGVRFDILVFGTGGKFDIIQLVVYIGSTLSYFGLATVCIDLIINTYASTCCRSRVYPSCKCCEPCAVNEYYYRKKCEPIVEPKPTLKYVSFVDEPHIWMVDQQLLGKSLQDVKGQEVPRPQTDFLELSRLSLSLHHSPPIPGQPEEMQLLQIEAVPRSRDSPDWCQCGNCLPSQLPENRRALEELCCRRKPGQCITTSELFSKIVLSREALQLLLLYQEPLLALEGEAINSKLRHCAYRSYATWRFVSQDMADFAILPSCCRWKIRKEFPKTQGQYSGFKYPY
Assay: Ca2+ flux (FLIPR) in 1321N1 cells expressing recombinant rat P2X7 channel
Details: 250 μM BzATP
The entries below are paired with their reported IC50.
Express it in µM; write the number only.

Incoming: # input compound: Cc1nc(C)c(-c2nnc3n2C[C@H](C)N(Cc2cccc(C(F)(F)F)c2Cl)C3=O)s1 ; wanted: its IC50
Outgoing: 8.67

Further cases:
Incoming: # input compound: C[C@H]1Cn2c(nnc2-c2ncco2)C(=O)N1Cc1cccc(C(F)(F)F)c1Cl ; wanted: its IC50
Outgoing: 2

Incoming: Then this compound: C[C@H]1Cn2c(nnc2-c2cn[nH]c2)C(=O)N1Cc1cccc(C(F)(F)F)c1Cl
Outgoing: 3.15

###

The entries below are paired with their reported remaining activity at 10 µM.
Target: P2X7 (Homo sapiens (Human))
Assay: P2X7 antagonism in human PBMCs (LPS + Bz-ATP induced IL-1β release, ELISA)
Type: cell-based
Details: P2X7, 10 μM compound, 0.5 mM Bz-ATP, human PBMC, read-out: PBMC 10 μM (% control)
Express it in %; write the number only.

Incoming: # input compound: C[C@H]1Cn2c(nnc2C2CCCN(C(=O)OC(C)(C)C)C2)C(=O)N1Cc1cccc(C(F)(F)F)c1Cl (some centres unmarked) ; wanted: its remaining activity at 10 µM
Outgoing: 10.9

Incoming: Then this compound: O=C1c2nnc(-c3cnccn3)n2C[C@H](C2CC2)N1Cc1cccc(C(F)(F)F)c1Cl (single isomer, unassigned)
Outgoing: 27.3

Incoming: Then this compound: C[C@H]1Cn2c(nnc2-c2ccc(F)cn2)C(=O)N1Cc1cccc(C(F)(F)F)c1Cl
Outgoing: 3.3

Incoming: Then this compound: O=C1c2nnc(-c3cnccn3)n2C[C@@H](C2CC2)N1Cc1cccc(C(F)(F)F)c1Cl (single isomer, unassigned)
Outgoing: 14.1

# evaluate next
Incoming: # input compound: C[C@@H]1Cn2c(nnc2-c2cnccn2)C(=O)N1Cc1cccc(Cl)c1Cl ; wanted: its remaining activity at 10 µM
Outgoing: 20.6

###

Molecular target: P2X7 (Homo sapiens (Human))
Assay: Ca2+ flux (FLIPR) in 1321N1 cells expressing recombinant human P2X7 channel
Assay type: cell-based
Conditions: 250 μM BzATP
The entries below are paired with their reported log10 IC50.
Values reflect log10 of reported IC50 (nM).

Incoming: # input compound: Cc1ncccc1-c1nnc2n1C[C@H](C)N(Cc1cccc(C(F)(F)F)c1Cl)C2=O ; wanted: its log10 IC50
Outgoing: 1.12

Incoming: Then this compound: C[C@H]1Cn2c(nnc2-c2ncc(Br)cn2)C(=O)N1Cc1cccc(C(F)(F)F)c1Cl
Outgoing: 1.24

Incoming: Then this compound: Cc1cccc(-c2nnc3n2C[C@H](C)N(Cc2cccc(C(F)(F)F)c2Cl)C3=O)n1
Outgoing: 0.52

Incoming: Then this compound: C[C@H]1Cn2c(nnc2-c2cnccn2)C(=O)N1Cc1ccccc1OC(F)(F)F
Outgoing: 2.91

Incoming: Then this compound: C[C@H]1Cn2c(nnc2-c2cnccn2)C(=O)N1Cc1cccc(C(F)(F)F)c1
Outgoing: 0.60

Incoming: Then this compound: COc1ccnc(-c2nnc3n2C[C@H](C)N(Cc2cccc(C(F)(F)F)c2Cl)C3=O)c1
Outgoing: -0.15

Incoming: Then this compound: O=C1c2nnc(-c3ccccn3)n2CCN1Cc1cccc(C(F)(F)F)c1Cl
Outgoing: 1.70

###

Target: rat P2X7 (Rattus norvegicus (Rat), UniProt Q64663)
Assay: Ca2+ flux (FLIPR) in 1321N1 cells expressing recombinant rat P2X7 channel
Conditions: 250 μM BzATP
pIC50: −log10 of the molar value.
Label Not satisfied if pIC50 falls below 6; label Satisfied in every other case.

Some entries whose results are on file:
Incoming: Decide: is the reported value of pIC50 for C[C@H]1Cn2c(nnc2C2CC2)C(=O)N1Cc1cccc(C(F)(F)F)c1Cl equal to or greater than 6?
Outgoing: Not satisfied

Incoming: Then this molecule: Cc1ncccc1-c1nnc2n1C[C@H](C)N(Cc1cccc(C(F)(F)F)c1Cl)C2=O
Outgoing: Satisfied

Incoming: Then this molecule: C[C@H]1Cn2c(nnc2-c2cnccn2)C(=O)N1Cc1ccccc1
Outgoing: Not satisfied

Incoming: Then this molecule: C[C@H]1Cn2c(nnc2C2CCOCC2)C(=O)N1Cc1cccc(C(F)(F)F)c1Cl
Outgoing: Not satisfied

Incoming: Then this molecule: CC[C@H]1Cn2c(nnc2-c2ccc(F)cn2)C(=O)N1Cc1cccc(C(F)(F)F)c1Cl
Outgoing: Satisfied

Further cases:
Incoming: Decide: is the reported value of pIC50 for C[C@H]1Cn2c(nnc2-c2cnccn2)C(=O)N1Cc1ccccc1[N+](=O)[O-] equal to or greater than 6?
Outgoing: Not satisfied

Incoming: Then this molecule: CC[C@H]1Cn2c(nnc2-c2cnccn2)C(=O)N1Cc1cccc(C(F)(F)F)c1Cl
Outgoing: Satisfied

Incoming: Then this molecule: Cc1cc(-c2nnc3n2C[C@H](C)N(Cc2cccc(C(F)(F)F)c2Cl)C3=O)n[nH]1
Outgoing: Satisfied

Incoming: Then this molecule: C[C@H]1Cn2c(nnc2C2CCCNC2)C(=O)N1Cc1cccc(C(F)(F)F)c1Cl (some centres unmarked)
Outgoing: Not satisfied

Incoming: Then this molecule: C[C@H]1Cn2c(nnc2-c2csc(C(F)(F)F)n2)C(=O)N1Cc1cccc(C(F)(F)F)c1Cl
Outgoing: Not satisfied

Incoming: Then this molecule: C[C@H]1Cn2c(nnc2C2CCCCC2)C(=O)N1Cc1cccc(C(F)(F)F)c1Cl
Outgoing: Not satisfied

Incoming: Then this molecule: C[C@H]1Cn2c(nnc2C2CCC2)C(=O)N1Cc1cccc(C(F)(F)F)c1Cl
Outgoing: Not satisfied

Incoming: Then this molecule: O=C1c2nnc(-c3ccc(F)cc3)n2CCN1Cc1cccc(C(F)(F)F)c1Cl
Outgoing: Not satisfied

Incoming: Then this molecule: O=C1c2nnc(-c3cnccn3)n2CCN1Cc1c(Cl)cccc1Cl
Outgoing: Not satisfied

Incoming: Then this molecule: C[C@H]1Cn2c(nnc2-c2ncc(Br)cn2)C(=O)N1Cc1cccc(C(F)(F)F)c1Cl
Outgoing: Not satisfied

Incoming: Then this molecule: C[C@H]1Cn2c(nnc2-c2cccnc2)C(=O)N1Cc1cccc(C(F)(F)F)c1Cl
Outgoing: Satisfied

###

Target: rat P2X7 (Rattus norvegicus (Rat))
Experiment: Ca2+ flux (FLIPR) in 1321N1 cells expressing recombinant rat P2X7 channel
Settings: 250 μM BzATP
Assign labels as follows, please: Criterion met for IC50 below 9 µM; Criterion not met for IC50 equal to or exceeding 9 µM.

Incoming: Quick check: IC50 of C[C@H]1Cn2c(nnc2-c2nccs2)C(=O)N1Cc1cccc(C(F)(F)F)c1Cl [Example 31] under 9 µM?
Outgoing: Criterion met

Incoming: Then this compound: O=C1c2nnc(-c3cnccn3)n2CCN1Cc1cccc(C(F)(F)F)c1Cl [Example 3]
Outgoing: Criterion not met

Incoming: Then this compound: C[C@H]1Cn2c(nnc2C2CCCN(C(=O)OC(C)(C)C)C2)C(=O)N1Cc1cccc(C(F)(F)F)c1Cl (stereo partly shown) [Example 59]
Outgoing: Criterion met

Incoming: Then this compound: CC[C@H]1Cn2c(nnc2-c2cc[nH]n2)C(=O)N1Cc1cccc(C(F)(F)F)c1Cl [Example 74]
Outgoing: Criterion met

Incoming: Then this compound: C[C@H]1Cn2c(nnc2-c2cnccn2)C(=O)N1Cc1cc2c(cc1Cl)OCO2 [Example 84]
Outgoing: Criterion not met

Incoming: Then this compound: O=C1c2nnc(-c3ccccn3)n2CCN1Cc1cccc(Cl)c1Cl [Example 8]
Outgoing: Criterion not met

###

Biological target: P2X7 (Homo sapiens (Human), UniProt Q99572)
Sequence (Q99572 whole entry): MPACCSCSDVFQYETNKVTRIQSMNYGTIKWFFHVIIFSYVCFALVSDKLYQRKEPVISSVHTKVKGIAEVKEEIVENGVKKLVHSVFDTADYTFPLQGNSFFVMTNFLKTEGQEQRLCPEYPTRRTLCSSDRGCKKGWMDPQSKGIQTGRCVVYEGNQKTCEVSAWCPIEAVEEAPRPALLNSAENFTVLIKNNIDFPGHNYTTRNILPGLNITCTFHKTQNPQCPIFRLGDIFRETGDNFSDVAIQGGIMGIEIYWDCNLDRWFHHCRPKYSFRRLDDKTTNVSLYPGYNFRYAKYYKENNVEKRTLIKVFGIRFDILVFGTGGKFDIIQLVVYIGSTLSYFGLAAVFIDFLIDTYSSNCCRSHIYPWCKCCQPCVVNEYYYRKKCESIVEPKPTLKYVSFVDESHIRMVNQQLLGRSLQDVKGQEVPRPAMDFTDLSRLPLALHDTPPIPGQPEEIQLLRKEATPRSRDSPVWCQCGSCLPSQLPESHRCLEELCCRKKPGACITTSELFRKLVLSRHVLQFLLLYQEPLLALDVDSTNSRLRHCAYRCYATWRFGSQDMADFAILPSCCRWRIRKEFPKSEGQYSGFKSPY
Assay: Radioligand binding, human P2X7-1321N1 cell membranes, tritiated A-804598 tracer
Settings: 1 hour at 4° C.
The entries below are paired with their reported Ki.
Express it in µM; write the number only.

Incoming: Form field - read-out: Ki; system: P2X7 (Homo sapiens (Human), UniProt Q99572); submitted item: Cc1cc(-c2nnc3n2C[C@H](C)N(Cc2cccc(C(F)(F)F)c2Cl)C3=O)n[nH]1
Outgoing: 0.0032

Incoming: Then this compound: Cc1nc(C)c(-c2nnc3n2C[C@H](C)N(Cc2cccc(C(F)(F)F)c2Cl)C3=O)s1
Outgoing: 0.0275

Incoming: Then this compound: O=C1c2nnc(-c3ccccn3)n2CCN1Cc1cccc(C(F)(F)F)c1Cl
Outgoing: 0.01

Incoming: Then this compound: C[C@H]1Cn2c(nnc2C2CCCNC2)C(=O)N1Cc1cccc(C(F)(F)F)c1Cl (stereo partly drawn)
Outgoing: 0.631

Incoming: Then this compound: C[C@H]1Cn2c(nnc2-c2nccs2)C(=O)N1Cc1cccc(C(F)(F)F)c1Cl
Outgoing: 0.004

Further cases:
Incoming: Form field - read-out: Ki; system: P2X7 (Homo sapiens (Human), UniProt Q99572); submitted item: CC[C@H]1Cn2c(nnc2-c2cnccn2)C(=O)N1Cc1cccc(C(F)(F)F)c1Cl
Outgoing: 0.0013

Incoming: Then this compound: Cc1cccc(C)c1CN1C(=O)c2nnc(-c3cnccn3)n2C[C@@H]1C
Outgoing: 0.0316

Incoming: Then this compound: O=C1c2nnc(-c3ncc(F)cn3)n2CC(C2CC2)N1Cc1cccc(C(F)(F)F)c1Cl (racemic)
Outgoing: 0.0079

Incoming: Then this compound: O=C1c2nnc(-c3ccccn3)n2CCN1Cc1cccc(Cl)c1Cl
Outgoing: 0.02

Incoming: Then this compound: CC[C@H]1Cn2c(nnc2-c2ccc(F)cn2)C(=O)N1Cc1cccc(C(F)(F)F)c1Cl
Outgoing: 0.0025

Incoming: Then this compound: Cc1cccc(-c2nnc3n2C[C@H](C)N(Cc2cccc(C(F)(F)F)c2Cl)C3=O)n1
Outgoing: 0.0126

Incoming: Then this compound: CC[C@H]1Cn2c(nnc2-c2cc[nH]n2)C(=O)N1Cc1cccc(C(F)(F)F)c1Cl
Outgoing: 0.01
